Cited source for all entries: PubChem BioAssay (NCI)

Test system: RXF 393 renal
Experiment: NCI tumour cell line growth inhibition, 48 h
Recorded TGI, one value per entry.
Number only, in µM; omit the unit.

# annotated cases, reported TGI shown
1) Clc1ccc(-c2nc(-c3ccccc3)cn3ccnc23)cc1; 28.6
2) C1CCC(C(CC2CCCCN2)C2CCCCC2)CC1 (configuration not stated); 2.78

Exam item: Param item = `O=C(O)CCC(=O)N1C/C(=C\c2ccccc2)C(=O)/C(=C/c2ccccc2)C1` ; retrieve measured TGI.
Marked response: 12.7

----------
System: RPMI-8226 leukemia
Test: NCI tumour cell line growth inhibition, 48 h
Mark Y for reported TGI of 10 µM or greater; mark N for anything smaller.

Exam item: I'd appreciate it if you could say whether `COc1cc(/C=C\c2cc(/C=C\c3ccc(O)c(OC)c3)n(C(=O)COc3ccccc3)n2)ccc1O` has TGI at least equal to 10 µM.
Marked response: N

Exam item: Quick check: does `COC(=O)[C@]12CC[C@@H](C(=O)/C=C/c3cccnc3)[C@@H]1[C@H]1CC[C@@H]3[C@@]4(C)C/C(=C/c5cccnc5)C(=O)C(C)(C)[C@@H]4CC[C@@]3(C)[C@]1(C)CC2` have TGI greater than or equal to 10 µM?
Marked response: N

Exam item: Is reported TGI greater than or equal to 10 µM here: `Cc1ccc(-c2cc(-c3cc(-c4ccc(C)cc4C)n[nH]3)[nH]n2)c(C)c1`
Marked response: Y

Exam item: Record NC1CC(=O)c2ccccc21 (stereo not drawn) ; criterion: TGI no lower than 10 µM. Met?
Marked response: Y

Exam item: Reported TGI at or above 10 µM? CC(=O)O[C@H](C[C@@H](C)[C@H]1C(=O)[C@H](O)[C@@]2(C)C3CC[C@H]4C(C)(C)[C@@H](OC5OCC(O)C(O)C5O)CC[C@@]45C[C@@]35CC[C@]12C)[C@@H]1OC1(C)C (stereo partly drawn)
Marked response: Y

Exam item: Item `CC1(C)CC(/C=C2/OC(=O)c3ccccc32)=C(C(N)=O)C(=O)O1` with TGI of 10 µM or above?
Marked response: Y

Exam item: Quick check: does `O=C1C(=C2SC(c3ccccc3)(c3ccccc3)c3ccccc32)C(=O)c2ccccc21` have TGI greater than or equal to 10 µM?
Marked response: Y

Exam item: Assess whether reported TGI for COC(=O)CCC(C)[C@H]1CCC2C3C(C[C@H](OC(C)=O)[C@@]21C)[C@@]1(C)CCC2(C[C@H]1C[C@H]3OC(C)=O)OOC1(CCC(C(C)(C)C)CC1)OO2 (stereo partly drawn) sits at 10 µM or higher.
Marked response: Y
